Target: DPB1*04:01 (Homo sapiens)
test-readout: pIC50
Quick note: pIC50 means taking -log10 of the concentration in moles per liter.

Consider the following illustrative entries.
compound	test-readout	quantitative-result
CC(C)C[C@H](NC(=O)[C@H](CCC(N)=O)NC(=O)[C@H](C)NC(=O)[C@H](CC(N)=O)NC(=O)[C@H](C)NC(=O)[C@H](CCC(N)=O)NC(=O)[C@H](Cc1ccccc1)NC(=O)[C@H](CC(=O)O)NC(=O)[C@H](Cc1ccccc1)NC(=O)[C@H](CC(N)=O)NC(=O)[C@H](CC(C)C)NC(=O)[C@@H](NC(=O)[C@H](CCC(=O)O)NC(=O)[C@@H](N)CC(C)C)C(C)C)C(=O)N[C@@H](CO)C(=O)O [Peptide 3563.0017]	pIC50	6.72
CC[C@H](C)[C@H](NC(=O)[C@H](CC(=O)O)NC(=O)[C@H](CC(C)C)NC(=O)[C@H](CC(C)C)NC(=O)[C@H](CCC(=O)O)NC(=O)[C@@H](N)CCC(N)=O)C(=O)N[C@@H](C)C(=O)N[C@@H](CC(N)=O)C(=O)N[C@@H](Cc1ccc(O)cc1)C(=O)N[C@@H](CC(C)C)C(=O)N[C@@H](CCSC)C(=O)N[C@@H](CCC(=O)O)C(=O)N[C@@H](CCC(N)=O)C(=O)N[C@H](C(=O)N[C@@H](CCC(N)=O)C(=O)O)[C@@H](C)CC [Peptide 3563.0003]	pIC50	5.59
CC[C@H](C)[C@H](NC(=O)[C@H](CC(C)C)NC(=O)[C@H](CO)NC(=O)[C@@H](NC(=O)[C@@H](NC(=O)[C@@H](N)CCCCN)[C@@H](C)CC)C(C)C)C(=O)N[C@@H](CCCCN)C(=O)N[C@@H](CC(N)=O)C(=O)N[C@@H](CC(C)C)C(=O)N[C@@H](CC(C)C)C(=O)N[C@H](C(=O)N[C@@H](C)C(=O)N[C@@H](CC(C)C)C(=O)N[C@@H](CCCCN)C(=O)N[C@@H](CC(=O)O)C(=O)O)C(C)C [Peptide 3563.0028]	pIC50	7.11
CC[C@H](C)[C@H](NC(=O)[C@H](CC(C)C)NC(=O)[C@H](CCCCN)NC(=O)[C@H](CO)NC(=O)CNC(=O)[C@@H](N)C(C)C)C(=O)N[C@H](C(=O)N[C@@H](C)C(=O)N[C@@H](CCSC)C(=O)N[C@@H](CO)C(=O)N[C@@H](CO)C(=O)N[C@@H](Cc1c[nH]c2ccccc12)C(=O)N[C@@H](CC(C)C)C(=O)N[C@@H](CCC(N)=O)C(=O)N[C@@H](CCCCN)C(=O)O)C(C)C [Peptide 3563.0008]	pIC50	7.05
CC[C@H](C)[C@H](NC(=O)[C@H](CC(C)C)NC(=O)[C@@H](N)Cc1ccccc1)C(=O)N[C@@H](Cc1ccc(O)cc1)C(=O)N[C@H](C(=O)N[C@H](C(=O)N[C@@H](CCC(=O)O)C(=O)N[C@@H](CC(C)C)C(=O)N[C@@H](CC(C)C)C(=O)N[C@@H](CCCCN)C(=O)N[C@@H](CCCCN)C(=O)N[C@@H](CC(C)C)C(=O)N[C@@H](CCC(N)=O)C(=O)N[C@@H](CO)C(=O)N[C@H](C(=O)O)[C@@H](C)O)[C@@H](C)O)[C@@H](C)CC [Peptide 3563.0030]	pIC50	6.67
CC[C@H](C)[C@H](N)C(=O)N[C@@H](CC(=O)O)C(=O)N[C@@H](CC(C)C)C(=O)N[C@@H](CO)C(=O)N[C@H](C(=O)N[C@@H](CCC(N)=O)C(=O)N[C@@H](CC(N)=O)C(=O)N[C@@H](Cc1ccc(O)cc1)C(=O)N[C@@H](Cc1c[nH]cn1)C(=O)N[C@H](C(=O)N[C@@H](Cc1ccccc1)C(=O)N[C@@H](CC(C)C)C(=O)N[C@H](C(=O)N[C@@H](Cc1ccc(O)cc1)C(=O)N[C@H](C(=O)O)[C@@H](C)CC)[C@@H](C)CC)[C@@H](C)O)[C@@H](C)CC [Peptide 3563.0029]	pIC50	4.60

Form entry - test system: DPB1*04:01 (Homo sapiens); read-out: pIC50; compound: CC[C@H](C)[C@H](NC(=O)[C@@H](NC(=O)[C@@H](N)CC(C)C)[C@@H](C)CC)C(=O)N[C@@H](CC(N)=O)C(=O)N[C@@H](Cc1c[nH]c2ccccc12)C(=O)N[C@@H](CC(C)C)C(=O)N[C@@H](CCC(N)=O)C(=O)N[C@@H](CCC(=O)O)C(=O)N[C@@H](C)C(=O)N[C@@H](CC(C)C)C(=O)N[C@@H](CO)C(=O)N[C@@H](CO)C(=O)N[C@@H](C)C(=O)N[C@@H](CO)C(=O)N[C@@H](CC(C)C)C(=O)O [Peptide 3563.0015] 5.21

Give DPB1*04:01 (Homo sapiens) pIC50 for CC[C@H](C)[C@H](NC(=O)[C@H](Cc1ccc(O)cc1)NC(=O)[C@H](Cc1c[nH]cn1)NC(=O)[C@H](CC(C)C)NC(=O)[C@@H](N)Cc1ccccc1)C(=O)N[C@@H](Cc1ccccc1)C(=O)N[C@@H](CCSC)C(=O)N[C@@H](CCC(=O)O)C(=O)N[C@@H](CC(N)=O)C(=O)N[C@@H](C)C(=O)N[C@@H](Cc1ccccc1)C(=O)N[C@@H](CCC(=O)O)C(=O)N[C@@H](CC(C)C)C(=O)N1CCC[C@H]1C(=O)N[C@H](C(=O)O)[C@@H](C)O [Peptide 3563.0006] 7.49

// fetch DPB1*04:01 (Homo sapiens) pIC50 for CSCC[C@H](NC(=O)[C@H](CC(C)C)NC(=O)[C@H](Cc1ccc(O)cc1)NC(=O)[C@H](C)NC(=O)[C@H](C)NC(=O)[C@H](CC(C)C)NC(=O)[C@H](CCCNC(=N)N)NC(=O)[C@H](CCCCN)NC(=O)[C@@H](N)CC(=O)O)C(=O)N[C@@H](CC(C)C)C(=O)N[C@@H](CCSC)C(=O)N[C@@H](CCCNC(=N)N)C(=O)N[C@@H](CO)C(=O)N1CCC[C@H]1C(=O)N[C@@H](CO)C(=O)O [Peptide 3563.0004] 6.43
